Test system PI3K α (Homo sapiens (Human)), IC50 listed for each of the molecules.

Below, 3 molecules whose answers are already recorded.
- query-smiles: "CS(=O)(=O)N1CCC(Nc2cnc3ccc(-c4ccc5oc(N)nc5c4)cc3n2)CC1"
  IC50: "< 0.1 µM"
- query-smiles: "Nc1nc2cc(-c3ccc4ncc(C(=O)N5CC[C@@H](N6CCOCC6)C5)n4c3)ccc2o1"
  IC50: "< 1 µM"
- query-smiles: "Nc1nc2cc(-c3ccc4ncc(C(=O)N5CC(N6CC[C@H](O)C6)C5)n4c3)ccc2o1"
  IC50: "< 0.1 µM"

Record lookup: for PI3K α (Homo sapiens (Human)), what IC50 belongs to CN1CCN(c2cnc3ccc(-c4ccc5nc(N)oc5c4)cc3n2)CC1 ?
< 1 µM

// repeat for C[C@H]1CN(c2cnc3scc(-c4ccc5oc(N)nc5c4)c3c2)CCN1 and report
> 10 µM
